Test system: ACHN
Experiment: NCI tumour cell line growth inhibition, 48 h
Active and inactive are the calls of the source. No stated cut-off is given here; in the data, active = GI50 up to about 1.1 µM and inactive = higher.
Below is a list of entries, each paired with its recorded GI50 value.
measured_quantity: GI50

1) CC1(O)C(C)(O)C(C)(O)C1(C)O (centres undefined) : > 100 µM (inactive)
2) O=C1Oc2ccccc2N/C1=C/C(=O)c1ccc([N+](=O)[O-])cc1 : > 100 µM (inactive)
3) CC(C)=CCC[C@@H](C)C1=C(N)C(=O)C(C)=C(O)C1=O : 18.8 µM (inactive)
4) C/C(=N\N(C)C)C(CN1CCCCC1)C(c1ccccc1)c1c(O)c2ccccc2oc1=O (centres undefined) : > 100 µM (inactive)

====

Test system: SF-295
Test: NCI tumour cell line growth inhibition, 48 h
The source made the active and inactive calls. Rule as the data show it: active = GI50 up to about 1.1 µM and inactive = higher.
A collection of compounds and their measured GI50
measured_quantity: GI50

1) O=C(/C(=N/Nc1ccccc1)c1ccc([N+](=O)[O-])cc1)c1ccc([N+](=O)[O-])cc1 : 32.1 µM (inactive)
2) Cn1c2c(c3ccccc31)CC(=O)N1CCCC(C1)CC21OCCO1 (stereo not drawn) : > 100 µM (inactive)
3) CNC(=O)OCC1C2=C(C(=O)C(C)=C(N)C2=O)N2CC3C(N3C)C12OC (stereo not drawn) : 5.02 µM (inactive)
4) C=C1CC(C)(c2ccc(Nc3nc4ccccc4c4occc34)cc2)OC1=O (stereo not drawn) : 12.8 µM (inactive)
5) CC[N+](CC)(CC)/C(=N\S(=O)(=O)c1ccc(Cl)cc1)[N-]S(=O)(=O)c1cc(C)c(Cl)cc1S : 47 µM (inactive)
6) C[C@]12C[C@@H](OC(=O)[C@]1(C)O)[C@@H]([C@]1(O)CC[C@H]3[C@@H]4C[C@H]5O[C@]56C[C@H]5O[C@H]5C(=O)[C@]6(C)[C@H]4CC[C@@]31C)C2 : > 50 µM (inactive)
7) CC[S+]1C2=C(CC(C)(C)CC2=O)[N-]c2ccccc21 (stereo not drawn) : 31.6 µM (inactive)
8) Cc1ccccc1C1CC(=O)CC(c2ccccc2C)C12C(=O)NC(=O)NC2=O (stereo not drawn) : > 100 µM (inactive)
9) Cc1cc(Cc2c(C)c(C)c(Cc3cc(C)cc(C(C)(C)C)c3O)c(C)c2C)c(O)c(C(C)(C)C)c1 : > 100 µM (inactive)
10) C=C1C(=O)OCC2C(C(=O)O)=CC3C(C)C(C)=CC123 (stereo not drawn) : 15 µM (inactive)
11) C=C1C[C@]23C[C@@]1(O)CC[C@H]2[C@@]12C=C[C@H](O)[C@@](C)(C(=O)O1)[C@H]2[C@@H]3C(=O)O : > 100 µM (inactive)
12) CCOC(=O)C1=C(C)N(NC(=O)c2ccccc2)C2(O)CCCC12C(=O)OCC (stereo not drawn) : > 100 µM (inactive)
13) O=C(Nc1ccc2c(c1)oc(=O)c1ccccc12)C(Cl)Cl : > 100 µM (inactive)

====

System: SF-539
Test: NCI tumour cell line growth inhibition, 48 h
Active and inactive are the calls of the source. Cut-off read from the data, not from the text of the source: active = GI50 up to about 1.1 µM and inactive = higher.
Below, each entry is listed with its recorded GI50.
measured_quantity: GI50

1. CCOC(=O)C1=C(C)N(NC(=O)c2ccccc2)C2(O)CCCC12C(=O)OCC (stereo not drawn) : > 100 µM (inactive)
2. C1CCN2CC3CONC3C2C1 (stereo not drawn) : > 100 µM (inactive)
3. CCCCC#COS(=O)(=O)c1ccc(C)cc1 : > 100 µM (inactive)
4. COC(=O)c1c(C)[nH]c2c1cc(O)c1nc(C)c(C)nc12 : 34.3 µM (inactive)
5. COc1ccccc1C(=O)Nc1ccc(Cl)c(C(=O)OC(C)C)c1 : > 67.3 µM (inactive)
6. CC1(C(=O)O)CCC2(C)CCC3(C)C(=CC(=O)C4C5(C)CCC(O)C(C)(C)C5CCC43C)C2C1 (stereo not drawn) : 17.6 µM (inactive)
7. CCOc1ccc(NC(=O)/C(=C\c2ccc(C)cc2)C(C)=O)cc1 : > 100 µM (inactive)
8. CC1(C)[C@@H](Cn2nnc3c(N)ncnc32)CC[C@@]1(C)CO : > 100 µM (inactive)
9. c1ccc(Nc2nnc(-c3ccccc3Nc3ccccc3-c3nnc(Nc4ccccc4)s3)s2)cc1 : > 100 µM (inactive)
10. NC(CCc1ncc(C(=O)O)s1)C(=O)O (stereo not drawn) : > 100 µM (inactive)
11. CC(C)=CCC[C@@H](C)C1=C(N)C(=O)C(C)=C(O)C1=O : 41.7 µM (inactive)
12. C=C(C)C(=O)OC1C(C(C)CCCO)=C(CO)CC2OC(=O)C(=C)C21 (stereo not drawn) : 23 µM (inactive)
13. Clc1ccc(-c2nn3c(-c4ccncc4)nnc3s2)cc1 : > 100 µM (inactive)
